Recorded GI50 for the following compounds
- Test system: HCT-116
- assay.method.text: NCI tumour cell line growth inhibition, 48 h
The source made the active and inactive calls. Rule as the data show it: active = GI50 up to about 1.1 µM and inactive = higher.
property.label: GI50

[[record]]
compound = "COc1ccc2c(ccc3c(C(=O)NCCN(C)CCNC(=O)c4cn(C)c5c4ccc4cc(OC)ccc45)cn(C)c32)c1"
reported = "1.79 µM (inactive)"

[[record]]
compound = "COC(=O)C(C(=O)C(=O)Nc1nnc(S)[nH]1)c1csc(-n2nc(-c3ccccc3)cc2-c2ccccc2)n1 (configuration not stated)"
reported = "> 100 µM (inactive)"

[[record]]
compound = "S=c1[nH]c2c(Cl)c(Cl)c(Cl)c(Cl)c2[nH]1"
reported = "21.1 µM (inactive)"

[[record]]
compound = "O=c1[nH]c(=O)n([C@H]2C[C@@H](CO)[C@@H](O)C2)cc1I"
reported = "> 100 µM (inactive)"

[[record]]
compound = "C1=N\\CCOCC/N=C\\c2ccc(cc2)OCc2cccc(n2)COc2ccc/1cc2"
reported = "> 100 µM (inactive)"

[[record]]
compound = "C=CCc1cc(-c2cc(CC=C)c(O)c(CNCCCl)c2)cc(CNCCCl)c1O"
reported = "19.4 µM (inactive)"

[[record]]
compound = "CC[C@H](C)[C@H]1NC(=O)[C@@H](NC(=O)[C@@H](CC(C)C)N(C)C(=O)C2CCCN2C(=O)[C@H](C)O)[C@@H](C)OC(=O)[C@H](Cc2ccc(OC)cc2)N(C)C(=O)[C@@H]2CCCN2C(=O)[C@H](CCCCNC(=O)OCc2ccccc2)NC(=O)[C@H](C)C(=O)[C@H](C(C)C)OC(=O)C[C@@H]1O (some centres not stated)"
reported = "3.28 µM (inactive)"

[[record]]
compound = "O=C(O)CCC(=O)Oc1ccc(O)c2c1CCCC2=O"
reported = "> 100 µM (inactive)"

[[record]]
compound = "COc1ccccc1-c1nc(-c2ccccc2O)n[nH]1"
reported = "> 100 µM (inactive)"

[[record]]
compound = "COc1ccc(NC(=O)CC(=O)N2N=C(N3c4ccccc4Sc4ccccc43)CC2c2ccccc2)cc1 (configuration not stated)"
reported = "> 100 µM (inactive)"

[[record]]
compound = "Nc1ccc(C(=O)N2CCC[C@H]2CO)c(N)c1"
reported = "> 100 µM (inactive)"

[[record]]
compound = "NC(=O)CCC(NC(=O)c1c2ccccc2nc2ccccc12)C(=O)O (configuration not stated)"
reported = "> 100 µM (inactive)"

[[record]]
compound = "COc1ccc(OC)c2c(=O)c3ccccc3[nH]c12"
reported = "44.2 µM (inactive)"

[[record]]
compound = "C[n+]1c(-c2ccc(/C=N/NC(=O)C(=O)N/N=C/c3ccc(-c4cn5ccsc5[n+]4C)cc3)cc2)cn2ccsc21"
reported = "92.5 µM (inactive)"

[[record]]
compound = "C=C1CCCC(C)(C)[C@H]1C/C=C1\\CCOC1=O"
reported = "12.6 µM (inactive)"

[[record]]
compound = "C=C1[C@H](OC(C)=O)[C@H]2[C@@H](OC(C)=O)[C@@H](C)C[C@]2(C)C(=O)[C@H](C)/C=C/C(C)(C)C(=O)[C@H](OCC(C)C)[C@H]1OC(C)=O"
reported = "> 25 µM (inactive)"

[[record]]
compound = "Cc1c(C(=O)OCc2ccccc2)[n+]([O-])c2cc(F)c(F)cc2[n+]1[O-]"
reported = "1.63 µM (inactive)"

[[record]]
compound = "Cc1c2ccncc2c(C)c2c1sc1ccccc12"
reported = "4.49 µM (inactive)"

[[record]]
compound = "CC(=O)O[C@H]1[C@@H]2[C@@H]3[C@@H](C[C@H]1C)[C@@H](C)CO[C@@]1(C)CC/C=C(/C)C[C@@H]2O[C@@H]31"
reported = "> 100 µM (inactive)"

[[record]]
compound = "Nc1ccc(C(=O)CC2(O)C(=O)Nc3ccccc32)cc1 (configuration not stated)"
reported = "> 100 µM (inactive)"

[[record]]
compound = "Nc1cc(-c2ccc(Cl)cc2)nn1-c1nc2ccccc2nc1-c1ccccc1"
reported = "> 100 µM (inactive)"

[[record]]
compound = "O=c1[nH]c2cc3cccnc3c(Cl)c2nc1C(F)(F)F"
reported = "43.5 µM (inactive)"

[[record]]
compound = "CCC(CCCN)Nc1cc(OC)cc2c(C)ccnc12 (configuration not stated)"
reported = "15.9 µM (inactive)"

[[record]]
compound = "O=C1/C(=C/c2cccnc2)SC(=S)N1Cc1ccco1"
reported = "3.06 µM (inactive)"

[[record]]
compound = "CC(C)=CCC/C(C)=C/CCC1(C)C2COC(=O)C21 (configuration not stated)"
reported = "31.9 µM (inactive)"

[[record]]
compound = "O=C(Oc1ccc2c(c1)CN(Cc1ccccc1)CO2)c1ccccc1"
reported = "16 µM (inactive)"

[[record]]
compound = "O=C(NC1C=Nc2ccc([N+](=O)[O-])cc2NC1=O)c1cc(Cl)cc([N+](=O)[O-])c1 (configuration not stated)"
reported = "> 100 µM (inactive)"

[[record]]
compound = "CN(C)c1ccc(C=C2C(=O)N(c3ccccc3)N(c3ccccc3)C2=O)cc1"
reported = "> 100 µM (inactive)"

[[record]]
compound = "CN1CN(c2ccccc2)C2(CCN(CCCN(C)c3ccc(F)cc3)CC2)C1=O"
reported = "12.8 µM (inactive)"

[[record]]
compound = "CC(=O)O[C@H]1CCC2[C@@H]3CCC4Nc5[nH]ncc5C[C@]4(C)C3CC[C@@]21C (some centres not stated)"
reported = "64.9 µM (inactive)"

[[record]]
compound = "COc1ccc(OC)c2sc(N3C(=O)/C(=C/c4ccc(SC)cc4)N=C3c3ccccc3)nc12"
reported = "18.7 µM (inactive)"

[[record]]
compound = "O=c1cc(/N=N\\c2ccc(Cl)c(Cl)c2)[nH]c(=O)[nH]1"
reported = "1.75 µM (inactive)"


###

- Tested on: SNB-19
- assay.method.text: NCI tumour cell line growth inhibition, 48 h
The source made the active and inactive calls. No stated cut-off is given here; in the data, active = GI50 up to about 1.1 µM and inactive = higher.
GI50 for assorted molecules
property.label: GI50

[[record]]
molecule = "CCOC(=O)C(C)NC(=O)NC12CC3CC(CC(F)(C3)C1)C2 (centres undefined)"
reported = "> 100 µM (inactive)"

[[record]]
molecule = "Clc1ccc(CSc2ncnc3c2ncn3C2CCCCO2)cc1 (centres undefined)"
reported = "34.8 µM (inactive)"

[[record]]
molecule = "O=CC12c3ccccc3C(c3ccccc31)C1C(=O)NC(=O)C12 (centres undefined)"
reported = "> 100 µM (inactive)"

[[record]]
molecule = "CN(C)c1ccc(C=C2C(=O)N(c3ccccc3)N(c3ccccc3)C2=O)cc1"
reported = "74.3 µM (inactive)"

[[record]]
molecule = "N#Cc1nc(CCC(c2nc(C#N)c(N)o2)N2C(=O)c3ccccc3C2=O)oc1N (centres undefined)"
reported = "> 100 µM (inactive)"

[[record]]
molecule = "O=C(O)COc1cccc2ccccc(=O)c12"
reported = "> 100 µM (inactive)"

[[record]]
molecule = "COc1nc(C#CCC(C)O)nc(OC)n1 (centres undefined)"
reported = "> 100 µM (inactive)"

[[record]]
molecule = "O=C1C(Br)=C(c2ccccc2)O/C1=C/C(=O)c1ccc(Br)cc1"
reported = "> 100 µM (inactive)"

[[record]]
molecule = "CC1(C)CC(=O)C(C(=O)Nc2cccs2)=C(O)C1"
reported = "31.1 µM (inactive)"

[[record]]
molecule = "CCN1CCC(O)(C(C(=O)O)c2ccccc2)CC1 (centres undefined)"
reported = "> 100 µM (inactive)"

[[record]]
molecule = "CC1OC(O)C(O)C(O)C1O (centres undefined)"
reported = "> 100 µM (inactive)"

[[record]]
molecule = "N#C/C(=C\\c1cccc(Cl)c1Cl)c1ccccc1"
reported = "> 49.3 µM (inactive)"

[[record]]
molecule = "CC[C@@]12CCCN3CC[C@]4(c5cccc(OC)c5N(C(C)=O)[C@@H]4CC1)[C@H]32 [ASPIDOSPERMINE]"
reported = "> 100 µM (inactive)"

[[record]]
molecule = "CCOC(=O)C(NC(=O)c1ccccc1)(c1ccc(S(=O)(=O)Nc2onc(C)c2C)cc1)C(F)(F)F (centres undefined)"
reported = "> 100 µM (inactive)"

[[record]]
molecule = "O=C(O)C(Cc1ccccc1)N1C(=O)c2ccccc2C1=O (centres undefined)"
reported = "> 100 µM (inactive)"

[[record]]
molecule = "CC[P+]1(c2ccccc2)[C@@H](C)CC[C@@H]1C"
reported = "> 100 µM (inactive)"

[[record]]
molecule = "COc1ccc2c(c1)CCC1C3(CCCC21C)OCCO3 (centres undefined)"
reported = "28.9 µM (inactive)"

[[record]]
molecule = "COC1=CC(=O)[C@H]2[C@H](C)C(c3ccccc3)[C@@]2(C)C1=O (some centres undefined)"
reported = "> 100 µM (inactive)"

[[record]]
molecule = "COc1ccc(-n2sc3ncccc3c2=O)cc1"
reported = "> 100 µM (inactive)"

[[record]]
molecule = "NC1=NN(c2ccccc2)C(=O)C1/C(=N\\NC(=O)c1cc2ccccc2cc1O)C(=O)Nc1nc([N+](=O)[O-])cs1 (centres undefined)"
reported = "> 60.1 µM (inactive)"

[[record]]
molecule = "COc1ccc(-n2c(Cn3nnc(-c4cccnc4)n3)nn(C3OC(COC(=O)c4ccccc4)C(OC(=O)c4ccccc4)C3OC(=O)c3ccccc3)c2=S)cc1 (centres undefined)"
reported = "74 µM (inactive)"

[[record]]
molecule = "COc1ccc2nc3ccccc3c(NCCCCCCN(C)CCCl)c2c1"
reported = "1.17 µM (inactive)"

[[record]]
molecule = "CC(C)CSCC1OC(n2cnc3c(N)nccc32)C(O)C1O (centres undefined)"
reported = "> 100 µM (inactive)"

[[record]]
molecule = "O=C1C(N2CCN(c3ccccn3)CC2)=C(Cl)C(=O)c2ncccc21"
reported = "> 10 µM (inactive)"

[[record]]
molecule = "CS(=O)(=O)N(CC(=O)O)Cc1ccccc1"
reported = "> 100 µM (inactive)"

[[record]]
molecule = "C=CCN1COc2c(cc3c4c(cccc24)C(=O)O3)C1"
reported = "> 100 µM (inactive)"

[[record]]
molecule = "COc1ccc(C2SCC(=O)N2c2ccc(-c3ccc(-n4c(-c5ccccc5)nc5ccccc5c4=O)cc3)cc2)cc1 (centres undefined)"
reported = "> 100 µM (inactive)"

[[record]]
molecule = "C[C@H]1CC[P+](Cc2ccccc2)(c2ccccc2)C1 (some centres undefined)"
reported = "> 100 µM (inactive)"

[[record]]
molecule = "COc1ccccc1-c1nc(-c2ccccc2O)n[nH]1"
reported = "> 100 µM (inactive)"

[[record]]
molecule = "CC1=C(C(=O)CC(=O)C(=O)Nc2ccc(C)c(C)c2)Sc2ccccc2N1"
reported = "> 100 µM (inactive)"

[[record]]
molecule = "O=[N+]([O-])c1ccc(NC(=S)Nc2ccccn2)cc1"
reported = "57.3 µM (inactive)"

[[record]]
molecule = "CCOP(=O)(OCC)/C(C#N)=C/c1cccn1CC(C)C"
reported = "> 100 µM (inactive)"

[[record]]
molecule = "Cc1cn(C2CC(COCc3ccccc3)N(CCO[Si](C)(C)C(C)(C)C)O2)c(=O)[nH]c1=O (centres undefined)"
reported = "13.6 µM (inactive)"

[[record]]
molecule = "CCc1cccc(C(C)C)c1NC(=O)C(=O)C(C(=O)C(=O)OC)c1nc2ccccc2nc1O (centres undefined)"
reported = "> 100 µM (inactive)"

